AC50 by entry:
Target or system: cGMP-inhibited 3',5'-cyclic phosphodiesterase 3A (Homo sapiens, UniProt Q14432); further: assay procedure not described here
Sequence (Q14432 whole entry): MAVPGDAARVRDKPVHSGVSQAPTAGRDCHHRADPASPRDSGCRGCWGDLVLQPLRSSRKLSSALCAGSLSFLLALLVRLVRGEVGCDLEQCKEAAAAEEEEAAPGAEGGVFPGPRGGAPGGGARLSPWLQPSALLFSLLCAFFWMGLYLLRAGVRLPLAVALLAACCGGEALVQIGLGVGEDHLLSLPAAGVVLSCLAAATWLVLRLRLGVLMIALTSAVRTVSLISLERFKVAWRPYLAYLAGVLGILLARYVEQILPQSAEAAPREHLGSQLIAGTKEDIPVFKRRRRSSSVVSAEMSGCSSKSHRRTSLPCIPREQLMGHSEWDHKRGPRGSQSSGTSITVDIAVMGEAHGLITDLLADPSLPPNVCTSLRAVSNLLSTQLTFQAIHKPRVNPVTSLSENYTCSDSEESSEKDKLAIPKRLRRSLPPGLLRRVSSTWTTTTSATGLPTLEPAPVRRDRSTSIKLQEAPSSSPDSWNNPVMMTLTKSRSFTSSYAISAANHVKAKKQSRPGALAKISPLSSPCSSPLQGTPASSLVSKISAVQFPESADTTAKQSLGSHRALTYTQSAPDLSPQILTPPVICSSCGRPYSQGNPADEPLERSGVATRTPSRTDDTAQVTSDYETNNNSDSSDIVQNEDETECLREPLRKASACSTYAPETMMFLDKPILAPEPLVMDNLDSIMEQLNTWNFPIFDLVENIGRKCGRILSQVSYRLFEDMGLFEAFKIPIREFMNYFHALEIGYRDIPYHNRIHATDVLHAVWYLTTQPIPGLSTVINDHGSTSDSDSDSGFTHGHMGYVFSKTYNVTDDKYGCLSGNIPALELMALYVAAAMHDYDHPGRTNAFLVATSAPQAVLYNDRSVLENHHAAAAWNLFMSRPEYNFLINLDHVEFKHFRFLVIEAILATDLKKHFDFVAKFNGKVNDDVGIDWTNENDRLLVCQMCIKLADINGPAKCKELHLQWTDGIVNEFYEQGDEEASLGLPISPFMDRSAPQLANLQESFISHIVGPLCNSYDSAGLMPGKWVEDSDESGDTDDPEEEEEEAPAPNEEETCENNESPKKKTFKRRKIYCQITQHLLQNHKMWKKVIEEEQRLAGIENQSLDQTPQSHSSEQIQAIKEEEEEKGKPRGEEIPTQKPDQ
Assay type: functional

CO[C@H]1[C@@H](O)C[C@H](O[C@H]2[C@@H](O)C[C@H](O[C@H]3[C@@H](O)C[C@H](O[C@H]4CC[C@@]5(C)[C@H](CC[C@@H]6[C@@H]5C[C@@H](O)[C@]5(C)[C@@H](C7=CC(=O)OC7)CC[C@]65O)C4)O[C@@H]3C)O[C@@H]2C)O[C@@H]1C    > 30 µM
CCCCNc1ccc(C(=O)OCCN(C)C)cc1    > 30 µM

Could you now look at the following compound, please?
Entry CC(=O)O[C@H]1C[C@H](O[C@H]2[C@@H](O)C[C@H](O[C@H]3[C@@H](O)C[C@H](O[C@H]4CC[C@@]5(C)[C@H](CC[C@@H]6[C@@H]5C[C@@H](O)[C@]5(C)[C@@H](C7=CC(=O)OC7)CC[C@]65O)C4)O[C@@H]3C)O[C@@H]2C)O[C@H](C)[C@H]1O[C@@H]1O[C@H](CO)[C@@H](O)[C@H](O)[C@H]1O [LANATOSIDE C] , system cGMP-inhibited 3',5'-cyclic phosphodiesterase 3A (Homo sapiens, UniProt Q14432): what AC50 was measured?; further: assay procedure not described here
> 30 µM
